- Tested on: U251 CNS
- TEST DESCRIPTION: NCI-60 one-dose screen, 48 h
- MEASUREMENT CONTEXT: 10 µM unless noted
About 83,000 compounds went through this panel and 20% of them were active in at least one assay; those are over-represented in the sample as a whole. Activity calls are given as the source filed them. How the source made its calls: active means growth percent below 10; inactive means the rest.
Just give me one of these, please: YES = active, NO = inactive

Illustrative cases are given below, each with its answer.
1) O=C1C(=O)N(CCCCn2cc(-c3ccccc3)nn2)c2ccccc21; NO
2) CCCCCCCCNc1cccc2c1C(=O)c1ccccc1C2=O; NO
3) COc1cccc2c1C(=O)c1c(O)c3c(c(O)c1C2=O)C[C@@](O)(C(=O)CO)C[C@@H]3OC1C[C@H](N)[C@H](O)[C@H](C)O1 (stereo partly specified); YES

INPUT: Could you kindly confirm the outcome this assay logged for COc1ccc2nc(-c3cc(-c4cc(OC)c(OC)c(OC)c4)n[nH]3)[nH]c2c1 ?
OUTPUT: NO

INPUT: Dear all, I need the recorded test outcome for CC(=O)O[C@H]1CC[C@@]2(C)[C@@H](CC[C@@H]3[C@@H]2CC(=O)[C@@]2(C)[C@H]3C[C@@H](C3CCCC3=O)[C@@H]2C(C)=O)C1 (stereo partly specified) , thank you.
OUTPUT: NO

INPUT: Which outcome did this test record for the compound COc1ccc(-c2cc(-c3c(C)oc4cc5occc5c(OC)c4c3=O)nc(N)c2C#N)cc1OC ?
OUTPUT: NO

INPUT: # fetch the recorded call for NCCNc1nc(-c2ccccc2)nc2nc(-c3ccccc3)oc12 here
OUTPUT: NO

INPUT: In this assay, the call recorded for CC(C)C[C@@H](NC(=O)[C@@H](Cc1ccccc1)NC(=O)c1cnccn1)B1O[C@H]2[C@H](O)[C@@H](C(=O)NCCCC[C@@H]3NC(=O)[C@@H](Cc4ccccc4)NC(=O)[C@H](CC(=O)O)NC(=O)CNC(=O)[C@H](CCCN=C(N)N)NC3=O)O[C@@H](CN)[C@H]2O1 was what?
OUTPUT: YES

INPUT: Lab log entry: Cc1cc2nc3c4cc(O)ccc4n(CCN(C)C)c3nc2cc1C — outcome as called in the assay?
OUTPUT: YES

INPUT: # lookup: test call for Fc1cccc(-c2[nH]nc3nc(Nc4cccnc4)sc23)c1
OUTPUT: NO

// data source = PubChem BioAssay (NCI)
